This collection of values is drawn from patent US5189046A.

molecular target: Protein kinase C from mouse brain; experiment: Inhibition of PKC phosphorylation of histone; assay type: biochemical; conditions: mouse brain PKC, histone, 30° C., 5 minutes; read-out: PKC IC50 (phosphorylation of histone)
Counter-ions that a name gives are not always drawn.
Measured attribute: IC50 (µM)

P. CCCCCCCCCCCCC(=O)N1CCCCC1CNC(=O)CN.Cl (stereo not drawn)
Q. CCCCCCCCCCCCC(=O)N1CCCCC1CNC(=O)C1CCCNC1 (stereo not drawn) [hydrochloride]
Input: Please indicate which item has the smaller measured IC50: P versus Q Select an item and report its label.
Output: Q

1. CCCCCCCCCCCCC(=O)N1CCCCC1CNC(=O)[C@@H](N)CCC(N)=O (stereo partly drawn) [hydrochloride]
2. CCCCCCCCCCCCC(=O)N1CCCCC1CNC(=O)[C@@H](N)CO (stereo partly drawn) [hydrochloride]
Input: Response body: label of entry with the larger IC50; valid values 1 , 2 . Select an item and report its label.
Output: 1
(1: 72 µM, 2: 44 µM)

1. CCCCCCCCCCCCC(=O)N1CCCCC1CNC(=O)[C@H](C)N (stereo partly drawn) [hydrochloride]
2. CCCCCCCCCCCCC(=O)N1CCCCC1CNC(=O)CCN.O=C(O)/C=C/C(=O)O (stereo not drawn) [fumarate]
Input: Response body: label of entry with the larger IC50; valid values 1 , 2 . Select an item and report its label.
Output: 1
